compounds and their reported activity change, negative = inhibition
Test Details: qHTS Assay for Lipid Storage Modulators (AID 1519); also: % is scaled to controls: 0 for no effect and ±100 for the full control effect
Condition Description: Drosophila S3 cells, BODIPY lipid droplet/cell ratio, laser cytometry; at 57.5 µM (top of the series); cells loaded with oleic acid
Results filed as inconclusive are left out.
Form entry: value (%) — number only.

Worked examples follow.
# Compound, Measurement Label, Result
data = [
    ("CC1(C)SC2C(NC(=O)Cc3ccccc3)C(=O)N2C1C(=O)O (stereo unspecified)", "activity change, negative = inhibition", 5.55),
    ("COc1ccccc1CN1CC2(CCN(C(=O)c3ccncc3)CC2)C1", "activity change, negative = inhibition", -2.12),
    ("O=C(c1ccco1)N1CCC[C@@]2(CCN(c3ncccn3)C2)C1", "activity change, negative = inhibition", 3.43),
    ("COc1cccc(Cn2c(=O)c(C)nc3cnc(N(C)C)nc32)c1", "activity change, negative = inhibition", -5.5),
    ("COC(=O)N1CCC2(CCCN(Cc3ccc(C#N)cc3)C2)CC1", "activity change, negative = inhibition", -1.17),
]

Q: Dear colleague, I am looking for the recorded activity change, negative = inhibition of the following compound: COCCn1c(=O)c(-c2cccc(C#N)c2)nc2cnc(N3CCN(C)CC3)nc21
Result: 6.64
